All figures here come from ChEMBL document CHEMBL1759968.

- Assay System: Thymidylate synthase (Mus musculus, UniProt P07607)
- Sequence (P07607 whole entry): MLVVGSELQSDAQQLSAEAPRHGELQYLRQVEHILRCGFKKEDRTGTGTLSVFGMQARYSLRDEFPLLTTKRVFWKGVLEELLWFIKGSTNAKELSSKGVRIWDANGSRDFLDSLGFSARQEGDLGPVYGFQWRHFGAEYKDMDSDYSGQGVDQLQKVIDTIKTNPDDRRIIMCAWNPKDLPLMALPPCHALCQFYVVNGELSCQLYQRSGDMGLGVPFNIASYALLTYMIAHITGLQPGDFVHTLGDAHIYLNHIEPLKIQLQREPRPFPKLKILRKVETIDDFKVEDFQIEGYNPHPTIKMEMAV
- Test: Inhibition of thymidylate synthase in mouse L1210 cells assessed as inhibition of tritium release from [5-3H]deoxyuridine after preincubation for 15 mins by liquid scintillation counting
- Format: cell-based

Molecule: O=c1[nH]c(=O)n([C@H]2C[C@H](O)[C@@H](CO)O2)cc1F
IC50: 0.0006 µM
--
Molecule: C=C1[C@H](O)[C@H](O)CO[C@@H]1n1cc(F)c(=O)[nH]c1=O
IC50: ≥ 10 µM
--
Molecule: C=C1C=CCO[C@@H]1n1cc(F)c(=O)[nH]c1=O
IC50: > 10 µM
--
Molecule: O=c1[nH]cc(F)c(=O)[nH]1
IC50: 7 µM
--
Molecule: O=C1C=CCO[C@@H]1n1cc(F)c(=O)[nH]c1=O
IC50: 8.1 µM

---

- Test system: Human respirovirus 3
- Test: Antiviral activity against Human parainfluenza virus 3 infected in Vero cells assessed as inhibition of virus-induced cytopathic effect
- Type: functional, organism-based
Calls of active or inactive are those of the source. The rule behind the calls is not given here.

Molecule: C=C1C=CCO[C@@H]1n1cc(C)c(O)nc1=O
Assay System: Human respirovirus 3
Activity: inactive
//
Molecule: C=C1[C@H](O)[C@H](O)CO[C@@H]1n1ccc(O)nc1=O
Assay System: Human respirovirus 3
Activity: inactive
//
Molecule: O=c1[nH]cc(F)c(=O)[nH]1 [FLUOROURACIL]
Assay System: Human respirovirus 3
Activity: inactive
//
Molecule: C=C1[C@H](O)[C@H](O)CO[C@@H]1n1cc(C)c(O)nc1=O
Assay System: Human respirovirus 3
Activity: inactive
//
Molecule: C=C1C=CCO[C@@H]1n1ccc(NC(=O)c2ccccc2)nc1=O
Assay System: Human respirovirus 3
Activity: inactive
//
Molecule: O=C1C=CCO[C@@H]1n1cc(F)c(O)nc1=O
Assay System: Human respirovirus 3
Activity: inactive
//
Molecule: O=c1[nH]c(=O)n([C@@H]2O[C@H](CO)[C@@H](O)[C@H]2O)cc1F [5-FLUOROURIDINE]
Assay System: Human respirovirus 3
Activity: inactive
//
Molecule: C=C1[C@H](O)[C@H](O)CO[C@@H]1n1cc(F)c(O)nc1=O
Assay System: Human respirovirus 3
Activity: inactive
//
Molecule: C=C1C=CCO[C@@H]1n1ccc(N)nc1=O
Assay System: Human respirovirus 3
Activity: inactive
//
Molecule: O=C1C=CCO[C@@H]1n1ccc(O)nc1=O
Assay System: Human respirovirus 3
Activity: inactive
//
Molecule: C=C1C=CCO[C@@H]1n1cc(F)c(O)nc1=O
Assay System: Human respirovirus 3
Activity: inactive
//
Molecule: O=C(Nc1ccn([C@H]2OCC=CC2=O)c(=O)n1)c1ccccc1
Assay System: Human respirovirus 3
Activity: inactive
//
Molecule: O=C1C=CCO[C@@H]1n1cc(C(F)(F)F)c(O)nc1=O
Assay System: Human respirovirus 3
Activity: inactive
//
Molecule: O=c1[nH]c(=O)n([C@H]2C[C@H](O)[C@@H](CO)O2)cc1F [FLOXURIDINE]
Assay System: Human respirovirus 3
Activity: inactive
//
Molecule: C=C1C=CCO[C@@H]1n1ccc(O)nc1=O
Assay System: Human respirovirus 3
Activity: inactive
//
Molecule: Cc1cn([C@H]2OCC=CC2=O)c(=O)nc1O
Assay System: Human respirovirus 3
Activity: inactive

---

- Test system: FM3A
- Test: Cytostatic activity against mouse FM3A cells after 2 days by coulter counting analysis
- Assay type: functional, cell-based
- Settings: 48 h
pIC50: −log10 of the molar value.
Endpoint: pIC50

Molecule: C=C1C=CCO[C@@H]1n1cc(C)c(O)nc1=O
Endpoint: pIC50
Observed: ≤ 3.05

Molecule: C=C1C=CCO[C@@H]1n1ccc(O)nc1=O
Endpoint: pIC50
Observed: < 3.00

Molecule: C=C1C=CCO[C@@H]1n1ccc(N)nc1=O
Endpoint: pIC50
Observed: ≤ 2.74

Molecule: C=C1[C@H](O)[C@H](O)CO[C@@H]1n1ccc(O)nc1=O
Endpoint: pIC50
Observed: < 3.10
